assay: Half life in mouse plasma assessed as remaining peptide antagonistic activity for inhibition of binding of alkaline phosphatase-fused ephrin-A5 to immobilized EphA4 Fc incubated for 3 days by ELISA; assay type: cell-free
Overview of recorded half-life for various molecules

Study these solved cases before continuing.
| itemSmiles | half-life |
| --- | --- |
| CC(C)[C@@H]1NC(=O)[C@@H](NC(=O)[C@H](Cc2ccc(O)cc2)NC(=O)CCCN)CSSC[C@@H](C(N)=O)NC(=O)[C@H](CO)NC(=O)[C@H](Cc2c[nH]c3ccccc23)NC(=O)[C@H](CO)NC(=O)CCNC(=O)[C@H](CCCNC(=N)N)NC(=O)[C@H](Cc2ccc(O)cc2)NC1=O | > 72 h |
| CC(C)[C@@H]1NC(=O)[C@@H](NC(=O)[C@H](Cc2ccc(O)cc2)NC(=O)CCCCCN)CSSC[C@@H](C(N)=O)NC(=O)[C@H](CO)NC(=O)[C@H](Cc2c[nH]c3ccccc23)NC(=O)[C@H](CO)NC(=O)CCNC(=O)[C@H](CCCNC(=N)N)NC(=O)[C@H](Cc2ccc(O)cc2)NC1=O | > 72 h |
| CC(=O)N1CCC[C@H]1C(=O)N[C@@H](Cc1ccc(O)cc1)C(=O)N[C@H]1CSSC[C@@H](C(N)=O)NC(=O)[C@H](CO)NC(=O)[C@H](Cc2c[nH]c3ccccc23)NC(=O)[C@H](CO)NC(=O)CCNC(=O)[C@H](CCCNC(=N)N)NC(=O)[C@H](Cc2ccc(O)cc2)NC(=O)[C@H](C(C)C)NC1=O | > 72 h |

Query: For CC(C)[C@@H]1NC(=O)[C@@H](NC(=O)[C@H](Cc2ccc(O)cc2)NC(=O)CN)CSSC[C@@H](C(N)=O)NC(=O)[C@H](CO)NC(=O)[C@H](Cc2c[nH]c3ccccc23)NC(=O)[C@H](CO)NC(=O)CCNC(=O)[C@H](CCCNC(=N)N)NC(=O)[C@H](Cc2ccc(O)cc2)NC1=O , what is its reported half-life?
Reply: 6 h

Query: For CC(C)[C@@H]1NC(=O)[C@@H](NC(=O)[C@H](Cc2ccc(O)cc2)NC(=O)[C@@H]2CCCN2)CSSC[C@@H](C(N)=O)NC(=O)[C@H](CO)NC(=O)[C@H](Cc2c[nH]c3ccccc23)NC(=O)[C@H](CO)NC(=O)CCNC(=O)[C@H](CCCNC(=N)N)NC(=O)[C@H](Cc2ccc(O)cc2)NC1=O , what is its reported half-life?
Reply: 15 h

Query: For CC(C)[C@@H]1NC(=O)[C@@H](NC(=O)[C@H](Cc2ccc(O)cc2)NC(=O)CCN)CSSC[C@@H](C(N)=O)NC(=O)[C@H](CO)NC(=O)[C@H](Cc2c[nH]c3ccccc23)NC(=O)[C@H](CO)NC(=O)CCNC(=O)[C@H](CCCNC(=N)N)NC(=O)[C@H](Cc2ccc(O)cc2)NC1=O , what is its reported half-life?
Reply: 30 h

Query: For CC(C)[C@@H]1NC(=O)[C@@H](NC(=O)[C@H](Cc2ccc(O)cc2)NC(=O)[C@@H]2CCCN2C(=O)[C@H](C)N)CSSC[C@@H](C(N)=O)NC(=O)[C@H](CO)NC(=O)[C@H](Cc2c[nH]c3ccccc23)NC(=O)[C@H](CO)NC(=O)CCNC(=O)[C@H](CCCNC(=N)N)NC(=O)[C@H](Cc2ccc(O)cc2)NC1=O , what is its reported half-life?
Reply: < 3 h

Query: For CC(C)[C@@H]1NC(=O)[C@@H](NC(=O)[C@H](Cc2ccc(O)cc2)NC(=O)[C@@H]2CCCN2C(=O)[C@@H](C)N)CSSC[C@@H](C(N)=O)NC(=O)[C@H](CO)NC(=O)[C@H](Cc2c[nH]c3ccccc23)NC(=O)[C@H](CO)NC(=O)CCNC(=O)[C@H](CCCNC(=N)N)NC(=O)[C@H](Cc2ccc(O)cc2)NC1=O , what is its reported half-life?
Reply: > 72 h
